B1: Osa-1-4 twister ribozyme (parent)
chain: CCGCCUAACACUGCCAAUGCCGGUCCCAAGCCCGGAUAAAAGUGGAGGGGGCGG

variants of: B1; assay: self-cleavage, relative activity (ratio to wild type); higher = more cleavage; co-transcriptional
# self-cleavage annotations
recordedMetric: self-cleavage

INSERT INTO assay_data (sequenceentry, recordedmetric, recordednumber) VALUES
  ('CCGCCUAACAUUGCCAAUGCCGGUCCCAAGCCCGGAUAAAAGUGGAGGGAGCGG [C11U G50A]', 'self-cleavage', 0.44),
  ('CCGCCUAACACUGCCAAUGACGGUCCCAAGCCCGCAUAAAAGUGGAGGGGGCGG [C20A G35C]', 'self-cleavage', 0.9),
  ('CCGCCUAACACUGCCAAUGUCGGUCCCAAGACCGGAUAAAAGUGGAGGGGGCGG [C20U C31A]', 'self-cleavage', 0.05),
  ('CCGCCUAACACUGCCAAUGCCGGUCCCAAGCCCGGAUAAAAGUGCAGGGGGCAG [G45C G53A]', 'self-cleavage', 0.06),
  ('CCGCCUAACACUGCCAACGCCGGUCCCAAGCCUGGAUAAAAGUGGAGGGGGCGG [C33U U18C]', 'self-cleavage', 0.63),
  ('CCGCCUAACACUGCCAAUGCCGGUCCCAUGCCCGGAUAAAAGAGGAGGGGGCGG [A29U U43A]', 'self-cleavage', 0.06),
  ('CCGCCUAAAACUGCCAAUCCCGGUCCCAAGCCCGGAUAAAAGUGGAGGGGGCGG [C9A G19C]', 'self-cleavage', 0.04),
  ('CCGCCUAACACUGUCAAUGCCGGUCCCAAGCACGGAUAAAAGUGGAGGGGGCGG [C14U C32A]', 'self-cleavage', 0.04),
  ('CCGCCUAACACUGCCAAUGCCGGUCCCAAGCCCUCAUAAAAGUGGAGGGGGCGG [G34U G35C]', 'self-cleavage', 0.31),
  ('CCGCCUAACACUGCCAAUGCCGAUCCCAAGCCCUGAUAAAAGUGGAGGGGGCGG [G23A G34U]', 'self-cleavage', 0.07),
  ('CCGCCUAACACUGCCAAUGCCGGUCCUAAGCCCGGAUAAAAAUGGAGGGGGCGG [C27U G42A]', 'self-cleavage', 0.08),
  ('CCGCCUAACACUGCCAAUGCCGGUCCCGAGCCCGGAUAAAAGUGGAAGGGGCGG [A28G G47A]', 'self-cleavage', 0.08),
  ('CCGCCUAACACUGCCAAUGCCGGUCCCAAGUCCGGAUAAAAGUGGAGGGCGCGG [C31U G50C]', 'self-cleavage', 0.26),
  ('CCGCCUAACACUGCCAAUGGCGGUCCCAAGCCCGGAUAAUAGUGGAGGGGGCGG [A40U C20G]', 'self-cleavage', 0.07);
